System: MCF-7 (ER+) cells
Experiment: MTS viability assay (dark and 457 nm light) in MCF-7
Format: cell-based
Conditions: MCF-7, 457 nm for 12 min at 6 h, 24 h incubation, MTS
Each entry below lists one item and its recorded IC50 value.

q: Please indicate IC50 recorded for [Cl][Ru][Cl].c1ccc(-c2ccccn2)nc1.c1ccc(-c2ccccn2)nc1.c1ccc(-c2ccccn2)nc1 [[Ru(bpy)3]Cl2, reference compound]
a: > 100 µM

Next up:
q: Please indicate IC50 recorded for CCCCc1cn(-c2cc3cccnc3c3ncccc23)nn1.[Cl-].[Cl-].[Ru+2].c1ccc(-c2ccccn2)nc1.c1ccc(-c2ccccn2)nc1 [Complex 1, [Ru(bpy)2(L-1a)]Cl2]
a: > 100 µM

Sourced from paper PMC12628291
